# System: Aspergillus
# Assay protocol: Antimicrobial activity against Aspergillus spp. by broth microdilution method
# Assay type: functional
*1 amine or outer side, *2 acyl side, *3 side chain or, on linkers, in order; H or OH if unused. Where a SMILES comes first, the peptide text is derived from it. Bridges are numbered along the chain shown (N, C = ends). [ ]: non-standard residue; d: D form. The star is where a group is joined. pTerphenylCO(4''-OnC5H11) = CCCCCOc1ccc(-c2ccc(-c3ccc(C(=O)*)cc3)cc2)cc1; Orn(4R-OH,5R-OH) = O=C([C@H](C[C@@H](O)[C@@H](O)N[*:3])N[*:1])[*:2]; hTyr(3S-OH,4S-OH) = N[C@H](C(=O)O)[C@H](O)[C@@H](O)c1ccc(O)cc1; Pro(3S-OH,4S-Me) = C[C@H]1CN[C@H](C(=O)O)[C@H]1O; Hyp = O=C(O)[C@@H]1C[C@@H](O)CN1
For each of the molecules below, state its MIC90.

• C[C@@H](c1ncncc1F)[C@](O)(Cn1cncn1)c1ccc(F)cc1F = > 8 µg/mL

Quick request: MIC90 for each listed item, please.
1. CCCCCOc1ccc(-c2ccc(-c3ccc(C(=O)N[C@H]4C[C@@H](O)[C@@H](O)NC(=O)[C@@H]5[C@@H](O)[C@@H](C)CN5C(=O)[C@H]([C@@H](C)O)NC(=O)[C@H]([C@H](O)[C@@H](O)c5ccc(O)cc5)NC(=O)[C@@H]5C[C@@H](O)CN5C(=O)[C@H]([C@@H](C)O)NC4=O)cc3)cc2)cc1 [ANIDULAFUNGIN] ({pTerphenylCO(4''-OnC5H11)}-[Orn(4R-OH,5R-OH)]T[Hyp][hTyr(3S-OH,4S-OH)]T[Pro(3S-OH,4S-Me)]; lactam 1-C)
2. CC[C@H](C)C[C@H](C)CCCCCCCCC(=O)N[C@H]1C[C@@H](O)[C@@H](NCCN)NC(=O)[C@@H]2[C@@H](O)CCN2C(=O)[C@H]([C@H](O)CCN)NC(=O)[C@H]([C@H](O)[C@@H](O)c2ccc(O)cc2)NC(=O)[C@@H]2C[C@@H](O)CN2C(=O)[C@H]([C@@H](C)O)NC1=O

[reply]
0.25 µg/mL
0.5 µg/mL
